SYSTEM UNDER TEST: binding partner of C5A (XPA23)
PROCEDURE TEXT: Biacore
Items are presented alongside their recorded fold difference in affinity vs original.
Write down the numeric answer in fold and omit the unit.

Sample answers from the record:
C5A (XPA23) VH G103A (antibody, V domains shown) VH: EVQLLESGGGLVQPGGSLRLSCAASGFTFSKYFMFWVRQAPGKGLEWVSVISPSGGMTRYADSVKGRFTISRDNSKNTLYLQMNSLRAEDTAVYYCARVGYGANSDYWGQGTLVTVSS VL: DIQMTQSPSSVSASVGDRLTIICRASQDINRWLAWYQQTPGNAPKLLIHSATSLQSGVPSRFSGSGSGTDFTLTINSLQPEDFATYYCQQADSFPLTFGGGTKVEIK = 0.03
C5A (XPA23) VH F35A (antibody, V domains shown) VH: EVQLLESGGGLVQPGGSLRLSCAASGFTFSKYFMAWVRQAPGKGLEWVSVISPSGGMTRYADSVKGRFTISRDNSKNTLYLQMNSLRAEDTAVYYCARVGYGGNSDYWGQGTLVTVSS VL: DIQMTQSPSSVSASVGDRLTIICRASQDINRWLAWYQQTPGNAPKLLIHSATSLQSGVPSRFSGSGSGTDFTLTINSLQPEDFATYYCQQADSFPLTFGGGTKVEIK = 0.07
C5A (XPA23) VH Y107P (antibody, V domains shown) VH: EVQLLESGGGLVQPGGSLRLSCAASGFTFSKYFMFWVRQAPGKGLEWVSVISPSGGMTRYADSVKGRFTISRDNSKNTLYLQMNSLRAEDTAVYYCARVGYGGNSDPWGQGTLVTVSS VL: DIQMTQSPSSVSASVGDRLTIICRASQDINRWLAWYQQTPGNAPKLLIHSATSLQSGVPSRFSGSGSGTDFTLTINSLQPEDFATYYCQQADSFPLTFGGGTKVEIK = 0.04

Look up fold difference in affinity vs original: C5A (XPA23) VH F35G (antibody, V domains shown) VH: EVQLLESGGGLVQPGGSLRLSCAASGFTFSKYFMGWVRQAPGKGLEWVSVISPSGGMTRYADSVKGRFTISRDNSKNTLYLQMNSLRAEDTAVYYCARVGYGGNSDYWGQGTLVTVSS VL: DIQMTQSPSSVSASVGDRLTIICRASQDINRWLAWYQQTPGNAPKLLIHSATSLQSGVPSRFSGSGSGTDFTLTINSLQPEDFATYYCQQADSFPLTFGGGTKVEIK
0.04

Let us now turn to C5A (XPA23) VH S30L (antibody, V domains shown) VH: EVQLLESGGGLVQPGGSLRLSCAASGFTFLKYFMFWVRQAPGKGLEWVSVISPSGGMTRYADSVKGRFTISRDNSKNTLYLQMNSLRAEDTAVYYCARVGYGGNSDYWGQGTLVTVSS VL: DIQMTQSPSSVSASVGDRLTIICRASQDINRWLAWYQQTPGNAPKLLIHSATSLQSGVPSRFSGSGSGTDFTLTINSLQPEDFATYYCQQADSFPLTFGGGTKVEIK
0.91

These entries and their values trace back to patent US20110118447A1.
